# System: MCF7
# test-name: Cytotoxicity against human MCF7 cells
# Format: functional, cell-based
metric: IC50 (nM)
Kindly answer with a numeric value in nM, unit omitted.

For record CO[C@H]1/C=C(/C)CCC[C@H](C)[C@H](O)[C@@H](C)C(=O)C(C)(C)[C@@H](O)CC(=O)O[C@@H]1/C(C)=C/c1csc(C)n1 the listed IC50 is 3.7
